target: T1, human PD-1-His protein (human, UniProt Q15116 25-167, limits assumed); test: SPR Biacore
T1 construct: also called huPD-1; not shown: His tag
T1 sequence (Q15116 25-167 limits assumed): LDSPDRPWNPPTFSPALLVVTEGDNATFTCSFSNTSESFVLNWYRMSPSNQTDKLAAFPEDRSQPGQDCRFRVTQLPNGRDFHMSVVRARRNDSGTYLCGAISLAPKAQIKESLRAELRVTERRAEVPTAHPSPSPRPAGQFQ
MEASURED QUANTITY: kon (M⁻¹ s⁻¹)
Kindly answer with a numeric value in M⁻¹ s⁻¹, unit omitted.

Item under review: HumAb713-3 (antibody, human IgG1, kappa, L234A L235A, V domains shown, humanized mAb713; also called HurnAb713-3) VH: EVQLVESGGGLVQPGGSLRLSCAASGFTSSDYGMHWVRQAPGKGLEWVSYISSGSYTIYYADTVKGRFTISRDNAKNSLYLQMNSLRDEDTAVYYCAKRGGSSHVNVMDYWGQGTTVTVSS VL: DIQMTQSPSSLSASVGDRVTITCKASDHINNWLAWYQQKPGKAPKLLIYGATSLETGVPSRFSGSGSGTDFTFTISSLQPEDIATYYCQQYWSPPYTFGGGTKVEIKR . Reported kon? 84500

Item under review: HumAb713-7 (antibody, human IgG1, kappa, L234A L235A, V domains shown, humanized mAb713) VH: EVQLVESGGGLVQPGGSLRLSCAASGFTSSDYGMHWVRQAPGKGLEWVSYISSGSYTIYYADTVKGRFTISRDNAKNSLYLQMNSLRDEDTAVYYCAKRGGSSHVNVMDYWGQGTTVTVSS VL: DIQMTQSPSSLSASVGDRVTITCKASDHINNWLAWYQQKPGKAPKLLIYGATSLETGVPSRFSGSGSGTDYTFTISSLQPEDIATYYCQQYWSPPYTFGGGTKVEIKR . Reported kon? 124000

Item under review: HumAb713-1 (antibody, human IgG1, kappa, L234A L235A, V domains shown, humanized mAb713) VH: EVQLVESGGGLVQPGGSLRLSCAASGFTFSDYGMHWVRQAPGKGLEWVSYISSGSYTIYYADTVKGRFTISRDNAKNSLYLQMNSLRDEDTAVYYCARRGGSSHVNVMDYWGQGTTVTVSS VL: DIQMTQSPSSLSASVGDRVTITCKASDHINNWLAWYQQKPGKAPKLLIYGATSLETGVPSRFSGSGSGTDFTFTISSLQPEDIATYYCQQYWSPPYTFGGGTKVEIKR . Reported kon? 90100

Item under review: mAb713c (antibody, V domains shown, also called mAb73c) VH: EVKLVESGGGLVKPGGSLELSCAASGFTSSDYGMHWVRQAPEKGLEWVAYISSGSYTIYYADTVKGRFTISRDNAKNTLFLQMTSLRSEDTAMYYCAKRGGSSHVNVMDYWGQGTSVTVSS VL: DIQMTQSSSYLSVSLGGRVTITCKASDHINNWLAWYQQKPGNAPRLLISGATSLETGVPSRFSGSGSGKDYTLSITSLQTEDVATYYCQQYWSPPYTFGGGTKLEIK . Reported kon? 218000

Item under review: HumAb713-11 (antibody, human IgG1, kappa, L234A L235A, V domains shown, humanized mAb713) VH: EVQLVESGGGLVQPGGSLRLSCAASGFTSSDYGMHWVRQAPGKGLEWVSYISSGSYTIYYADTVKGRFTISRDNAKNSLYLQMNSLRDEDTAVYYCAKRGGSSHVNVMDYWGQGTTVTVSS VL: DIQMTQSPSSLSASVGDRVTITCKASDHINNWLAWYQQKPGKAPKLLISGATSLETGVPSRFSGSGSGTDYTFTISSLQPEDIATYYCQQYWSPPYTFGGGTKVEIKR . Reported kon? 159000

Data provenance is patent US20210188980A1.
